Target: T1, GST_HS6ST2_C2 (human, UniProt Q96MM7 525-605)
T1 construct: Expressed in E. coli BL21 (DE3); whole cell lysate blotted after SDS-PAGE; also called GST fusion of amino acids 379-459 of HS6ST2_N-short; not shown: N-terminal glutathione S-transferase (GST) of vector pGEX-6P-1, with the vector's linker
T1 sequence: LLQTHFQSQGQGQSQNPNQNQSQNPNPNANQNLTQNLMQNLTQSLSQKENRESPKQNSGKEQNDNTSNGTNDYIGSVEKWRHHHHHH
Assay: Western blot of E. coli whole cell lysate, antibody 10 µg/mL

- binder: "anti-HS6ST2 antibody B6 (antibody, mouse IgG1, V domains shown, also called clone B6) VH: EVQLQQSGAELVRSGASVKLSCTASGFNIKDYYMHWVKQRPEQGLEWIGWIDPDNGDTEYAPKFQGKATMTADTSSNTAYLQLSSLTSEDTAVYYCNAGNGNYWFAYWGQGTLVTVSA VL: DVVMTQTPLSLPVSLGDQASISCRSSQSLVHSNGNTYLHWNLQKPGQSPKLLIYKVSNRFSGVPDRFSGSGSGTDFTLKISRVEAEDLGVYFCSQTTLVPYTFGGGTKLEIK"
  binding result: "binds"
